The following binders are shown together with reported glycan array binding signal (z-score) values.
- assayed system: Gal6S(b1-3)GlcNAc6S
- experiment description: glycan array binding signal (z-score within array); higher = stronger binding
- condition notes: glycan notation: IUPAC condensed, linker removed
Many of the other results were omitted from the sample, so the strongest signals are more common in it than they were.

Enquiry: Given the entry FimA-N3 (Actinomyces oris) (protein) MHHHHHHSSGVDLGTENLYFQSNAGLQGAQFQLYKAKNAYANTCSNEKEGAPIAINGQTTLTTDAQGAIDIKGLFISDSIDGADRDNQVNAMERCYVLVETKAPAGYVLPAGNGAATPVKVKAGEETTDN , report its measured glycan array binding signal (z-score).
Return: -0.446

The record that follows has no glycan array binding signal (z-score) shown yet.
Enquiry: Given the entry LlpA (Burkholderia cenocepacia) (protein) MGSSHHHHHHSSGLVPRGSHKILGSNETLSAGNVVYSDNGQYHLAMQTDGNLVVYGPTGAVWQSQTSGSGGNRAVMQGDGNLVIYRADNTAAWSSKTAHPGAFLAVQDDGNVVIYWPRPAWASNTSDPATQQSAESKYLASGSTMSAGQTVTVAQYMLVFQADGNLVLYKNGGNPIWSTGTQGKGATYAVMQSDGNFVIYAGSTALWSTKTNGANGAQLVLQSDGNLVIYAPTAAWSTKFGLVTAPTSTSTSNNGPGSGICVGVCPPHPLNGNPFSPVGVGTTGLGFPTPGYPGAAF , report its measured glycan array binding signal (z-score).
Return: -0.227
